Structures can show the parent of a compound that is named as a salt.
# Ki per entry for UniProt:P28223
# Sequence (P28223 whole entry): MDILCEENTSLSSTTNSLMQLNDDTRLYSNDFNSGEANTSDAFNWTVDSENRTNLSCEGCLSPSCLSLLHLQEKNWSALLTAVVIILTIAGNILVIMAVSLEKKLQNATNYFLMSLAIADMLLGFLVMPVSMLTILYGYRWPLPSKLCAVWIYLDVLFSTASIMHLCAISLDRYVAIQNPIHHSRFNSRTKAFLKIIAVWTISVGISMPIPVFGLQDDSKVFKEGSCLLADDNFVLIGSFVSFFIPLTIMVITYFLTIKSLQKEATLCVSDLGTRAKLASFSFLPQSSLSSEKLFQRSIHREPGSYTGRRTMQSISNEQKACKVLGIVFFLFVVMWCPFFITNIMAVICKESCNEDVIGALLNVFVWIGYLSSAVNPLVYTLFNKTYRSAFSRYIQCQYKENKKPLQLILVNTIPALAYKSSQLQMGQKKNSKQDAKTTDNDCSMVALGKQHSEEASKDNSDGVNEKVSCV
Measured property: Ki (nM)

Compound: CCOC(=O)CN1C(=O)COc2ccc(OCCCCN3CCN(c4cccc(Cl)c4Cl)CC3)cc21 [Compound 28c, hydrochloride]
Measured property: Ki
Observed value: 106
//
Compound: CCOC(=O)C(C)(C)Oc1ccccc1N1CCN(CCCCOc2ccc3c(c2)NC(=O)CO3)CC1 [Compound 18c, hydrochloride]
Measured property: Ki
Observed value: 185
//
Compound: CCOC(=O)C(C)(C)CCOc1ccccc1N1CCN(CCCCOc2ccc3c(c2)NC(=O)CO3)CC1 [Compound 18b, hydrochloride]
Measured property: Ki
Observed value: 340
//
Compound: O=C(CCCN1CCN(c2cccc(Cl)c2Cl)CC1)Nc1ccc2c(c1)NC(=O)CO2 [Compound 5b, hydrochloride]
Measured property: Ki
Observed value: 57.4
//
Compound: CCOC(=O)CCCOc1ccccc1N1CCN(CCCCOc2ccc3c(c2)NC(=O)CO3)CC1 [Compound 18a, hydrochloride]
Measured property: Ki
Observed value: 282

The measured values listed here are drawn from patent US8207163B2.
